TARGET_UNDER_TEST: galectin-7 (Homo sapiens, UniProt P47929)
Sequence (P47929 whole entry, species assumed): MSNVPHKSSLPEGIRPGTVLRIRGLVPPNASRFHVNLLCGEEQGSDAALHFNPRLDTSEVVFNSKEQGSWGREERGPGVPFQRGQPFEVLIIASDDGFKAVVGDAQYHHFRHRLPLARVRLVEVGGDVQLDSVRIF
MEASUREMENT_PROTOCOL: Fluorescence polarization-based galectin inhibition assay
Format: binding
EXPERIMENTAL_CONDITIONS: 0° C., read-out: Calculated Kd Galectin 7
MEASURED_ENDPOINT: Kd (µM)

COMPOUND | TARGET_UNDER_TEST | Kd, µM
COc1ccc2cc(CO[C@H]3[C@@H](O)[C@@H](CO)O[C@@H](S[C@@H]4O[C@H](CO)[C@H](O)[C@H](OCc5cc6ccc(OC)cc6oc5=O)[C@H]4O)[C@@H]3O)c(=O)oc2c1 [Compound 22] | galectin-7 (Homo sapiens, UniProt P47929) | 37

I. O=c1oc2ccccc2cc1CO[C@H]1[C@@H](O)[C@@H](CO)O[C@@H](S[C@@H]2O[C@H](CO)[C@H](O)[C@H](OCc3cc4ccccc4oc3=O)[C@H]2O)[C@@H]1O [Compound 20]
II. O=C(NC1C(O)[C@H](S[C@@H]2OC(CO)[C@H](O)C(NC(=O)c3ccc4ccccc4c3)C2O)OC(CO)[C@@H]1O)c1ccc2ccccc2c1 (stereo partly drawn) [Compound 36, reference compound]
In: Lab note: check whether I or II shows the higher recorded Kd. Pick one and reply with its label.
Out: I
(I: 3.9 µM, II: 1.7 µM)

###

TARGET_UNDER_TEST: galectin-9 (N-terminal domain) (Homo sapiens, UniProt O00182)
Sequence (O00182 17-148 limits assumed, species assumed): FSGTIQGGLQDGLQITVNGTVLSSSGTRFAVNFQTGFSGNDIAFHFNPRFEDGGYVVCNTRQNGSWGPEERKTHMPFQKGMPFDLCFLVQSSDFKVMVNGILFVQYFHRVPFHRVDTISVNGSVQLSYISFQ
MEASURED_ENDPOINT: Kd (µM)

Examples with answers:
MOLECULE | TARGET_UNDER_TEST | VALUE_UNITS | QUANTITATIVE_READOUT
COc1ccc2cc(CO[C@H]3[C@@H](O)[C@@H](CO)O[C@@H](S[C@@H]4O[C@H](CO)[C@H](O)[C@H](OCc5cc6ccc(OC)cc6oc5=O)[C@H]4O)[C@@H]3O)c(=O)oc2c1 | galectin-9 (N-terminal domain) (Homo sapiens, UniProt O00182) | µM | 13
O=C(OC1C(O)[C@H](S[C@@H]2OC(CO)[C@H](O)C(OC(=O)c3ccc4ccccc4c3)C2O)OC(CO)[C@@H]1O)c1ccc2ccccc2c1 (stereo partly shown) [Compound 35, reference compound] | galectin-9 (N-terminal domain) (Homo sapiens, UniProt O00182) | µM | 2.8
CO[C@@H]1OC(CO)[C@H](O)C(O)C1O (stereo partly drawn) [methyl β-D-galactoside, reference compound] | galectin-9 (N-terminal domain) (Homo sapiens, UniProt O00182) | µM | 3400
O=c1oc2ccc(F)c(F)c2cc1CO[C@H]1[C@@H](O)[C@@H](CO)O[C@@H](S[C@@H]2O[C@H](CO)[C@H](O)[C@H](OCc3cc4c(F)c(F)ccc4oc3=O)[C@H]2O)[C@@H]1O | galectin-9 (N-terminal domain) (Homo sapiens, UniProt O00182) | µM | 1.1
CC(C)(C)c1ccc2oc(=O)c(COC3C(O)[C@H](S[C@@H]4OC(CO)[C@H](O)C(OCc5cc6cc(C(C)(C)C)ccc6oc5=O)C4O)OC(CO)[C@@H]3O)cc2c1 (stereo partly shown) | galectin-9 (N-terminal domain) (Homo sapiens, UniProt O00182) | µM | 39

1. O=c1oc2ccc(OC(F)(F)F)cc2cc1COC1C(O)[C@H](S[C@@H]2OC(CO)[C@H](O)C(OCc3cc4cc(OC(F)(F)F)ccc4oc3=O)C2O)OC(CO)[C@@H]1O (stereo partly shown)
2. O=c1oc2ccc3ccccc3c2cc1CO[C@H]1[C@@H](O)[C@@H](CO)O[C@@H](S[C@@H]2O[C@H](CO)[C@H](O)[C@H](OCc3cc4c(ccc5ccccc54)oc3=O)[C@H]2O)[C@@H]1O
3. O=c1oc2cccc(F)c2cc1CO[C@H]1[C@@H](O)[C@@H](CO)O[C@@H](S[C@@H]2O[C@H](CO)[C@H](O)[C@H](OCc3cc4c(F)cccc4oc3=O)[C@H]2O)[C@@H]1O
4. O=C(NC1C(O)[C@H](S[C@@H]2OC(CO)[C@H](O)C(NC(=O)c3ccc4ccccc4c3)C2O)OC(CO)[C@@H]1O)c1ccc2ccccc2c1 (stereo partly shown) [Compound 36, reference compound]
In: Ascending by Kd, please: list the molecules accordingly. API: response body holds the labels in the requested order.
Out: 4, 2, 3, 1
(4: 0.73 µM, 2: 4.7 µM, 3: 7 µM, 1: 29 µM)

###

This document collects pKd values reported for UniProt P17931.
Sequence (P17931 whole entry, species assumed): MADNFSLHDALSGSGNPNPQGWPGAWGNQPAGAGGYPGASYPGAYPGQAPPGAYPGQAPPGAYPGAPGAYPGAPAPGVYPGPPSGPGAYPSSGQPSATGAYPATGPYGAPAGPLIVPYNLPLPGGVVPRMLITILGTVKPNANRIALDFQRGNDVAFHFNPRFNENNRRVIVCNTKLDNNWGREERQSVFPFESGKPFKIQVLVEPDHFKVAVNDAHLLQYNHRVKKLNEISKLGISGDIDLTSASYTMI
pKd: −log10 of the molar value.
MEASURED_ENDPOINT: pKd

1. O=c1oc2cccc(F)c2cc1CO[C@H]1[C@@H](O)[C@@H](CO)O[C@@H](S[C@@H]2O[C@H](CO)[C@H](O)[C@H](OCc3cc4c(F)cccc4oc3=O)[C@H]2O)[C@@H]1O
2. O=c1oc2ccc3ccccc3c2cc1CO[C@H]1[C@@H](O)[C@@H](CO)O[C@@H](S[C@@H]2O[C@H](CO)[C@H](O)[C@H](OCc3cc4c(ccc5ccccc54)oc3=O)[C@H]2O)[C@@H]1O
3. O=C(OC1C(O)[C@H](S[C@@H]2OC(CO)[C@H](O)C(OC(=O)c3ccc4ccccc4c3)C2O)OC(CO)[C@@H]1O)c1ccc2ccccc2c1 (stereo partly shown) [Compound 35, reference compound]
4. O=c1oc2cccc(Cl)c2cc1CO[C@H]1[C@@H](O)[C@@H](CO)O[C@@H](S[C@@H]2O[C@H](CO)[C@H](O)[C@H](OCc3cc4c(Cl)cccc4oc3=O)[C@H]2O)[C@@H]1O
In: Parameters: sort_field (pKd), sort_dir (desc). API: response body holds the labels in the requested order.
Out: 1, 4, 2, 3
(1: 7.21, 4: 6.77, 2: 6.29, 3: 4.97)

a. O=c1oc2cc(O)ccc2cc1COC1C(O)[C@H](S[C@@H]2OC(CO)[C@H](O)C(OCc3cc4ccc(O)cc4oc3=O)C2O)OC(CO)[C@@H]1O (stereo partly shown)
b. O=c1oc2ccc(O)cc2cc1COC1C(O)[C@H](S[C@@H]2OC(CO)[C@H](O)C(OCc3cc4cc(O)ccc4oc3=O)C2O)OC(CO)[C@@H]1O (stereo partly shown)
In: Lab note: check whether a or b shows the higher recorded pKd. Pick one and reply with its label.
Out: a
(a: 7.12, b: 6.82)

###

TARGET_UNDER_TEST: galectin-7 (Homo sapiens, UniProt P47929)
MEASURED_ENDPOINT: Kd (µM)

MOLECULE | TARGET_UNDER_TEST | VALUE_UNITS | QUANTITATIVE_READOUT
O=c1oc2cc(Cl)ccc2cc1CO[C@H]1[C@@H](O)[C@@H](CO)O[C@@H](S[C@@H]2O[C@H](CO)[C@H](O)[C@H](OCc3cc4ccc(Cl)cc4oc3=O)[C@H]2O)[C@@H]1O | galectin-7 (Homo sapiens, UniProt P47929) | µM | 61

P. O=C(OC1C(O)[C@H](S[C@@H]2OC(CO)[C@H](O)C(OC(=O)c3ccc4ccccc4c3)C2O)OC(CO)[C@@H]1O)c1ccc2ccccc2c1 (stereo partly drawn) [Compound 35, reference compound]
Q. CO[C@@H]1OC(CO)[C@H](O)C(O)C1O (stereo partly drawn) [methyl β-D-galactoside, reference compound]
In: Lab note: check whether P or Q shows the higher recorded Kd. Pick one and reply with its label.
Out: Q
(Q: 4800 µM, P: 48 µM)

###

TARGET_UNDER_TEST: galectin-4 (N-terminal domain) (Homo sapiens, UniProt P56470)
Sequence (P56470 19-150 limits assumed): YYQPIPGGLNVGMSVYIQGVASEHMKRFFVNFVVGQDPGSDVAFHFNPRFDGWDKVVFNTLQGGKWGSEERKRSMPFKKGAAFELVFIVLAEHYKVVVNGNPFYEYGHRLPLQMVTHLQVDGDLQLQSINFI
MEASUREMENT_PROTOCOL: Fluorescence polarization-based galectin inhibition assay
Assay type: binding
MEASURED_ENDPOINT: Kd (µM)
Provide the reading as a plain figure in µM.

Please fill in: Kd reported for O=c1oc2ccccc2cc1CO[C@H]1[C@@H](O)[C@@H](CO)O[C@@H](S[C@@H]2O[C@H](CO)[C@H](O)[C@H](OCc3cc4ccccc4oc3=O)[C@H]2O)[C@@H]1O = 49

###

TARGET_UNDER_TEST: galectin-4 (N-terminal domain) (Homo sapiens, UniProt P56470)
MEASUREMENT_PROTOCOL: Fluorescence polarization-based galectin inhibition assay
Type: binding
EXPERIMENTAL_CONDITIONS: fluorescence polarization, 20° C.; read-out: Calculated Kd Galectin 4 (N-terminal domain)
MEASURED_ENDPOINT: Kd (µM)

a. O=c1oc2ccc3ccccc3c2cc1CO[C@H]1[C@@H](O)[C@@H](CO)O[C@@H](S[C@@H]2O[C@H](CO)[C@H](O)[C@H](OCc3cc4c(ccc5ccccc54)oc3=O)[C@H]2O)[C@@H]1O
b. O=c1oc2cc(F)c(F)cc2cc1COC1C(O)[C@H](S[C@@H]2OC(CO)[C@H](O)C(OCc3cc4cc(F)c(F)cc4oc3=O)C2O)OC(CO)[C@@H]1O (stereo partly drawn)
In: Lab note: check whether a or b shows the higher recorded Kd. Pick one and reply with its label.
Out: a
(a: 110 µM, b: 44 µM)
